# credit: ChEMBL document CHEMBL1129100

# Measured On: Integrin alpha-IIb/beta-3 (Homo sapiens) (UniProt P05106+P08514)
# Assay Protocol: Affinity for purified alpha IIb beta-3 integrin
# Format: protein-complex assay
Recorded ED50 by entry
Value expressed in nM; do not type the unit.

Some solved entries appear below for comparison.
chemical_structure=CN(C)c1cccc2c(S(=O)(=O)N[C@@H](CNC(=O)c3ccc4c(c3)C(=O)N(CCC3CCNCC3)C4)C(=O)O)cccc12 measured_parameter=ED50 recorded_measurement=2.1
chemical_structure=O=C(O)CCNC(=O)c1ccc2c(c1)C(=O)N(CCC1CCNCC1)C2 measured_parameter=ED50 recorded_measurement=12

Which ED50 is reported for this compound? CCCCS(=O)(=O)N[C@@H](Cc1ccc(OCCCCC2CCNCC2)cc1)C(=O)O
0.9

Let us now turn to O=C(O)C1=C/C(=N\C(S)=N\CCS(=O)(=O)N[C@@H](CNC(=O)c2ccc3c(c2)C(=O)N(CCC2CCNCC2)C3)C(=O)O)C=CC1=C1c2ccc(O)cc2Oc2cc(O)ccc21
1.9
